Each entry below carries its reported IC50.
Biological target: PDE4D (Homo sapiens)
Construct: PDE4D: The catalytic domain of human PDE4B from S3 16-V692; His6 (N); thrombin cleavage site (N); made in house; host or cells: E. coli
Sequence (Q08499 380-756): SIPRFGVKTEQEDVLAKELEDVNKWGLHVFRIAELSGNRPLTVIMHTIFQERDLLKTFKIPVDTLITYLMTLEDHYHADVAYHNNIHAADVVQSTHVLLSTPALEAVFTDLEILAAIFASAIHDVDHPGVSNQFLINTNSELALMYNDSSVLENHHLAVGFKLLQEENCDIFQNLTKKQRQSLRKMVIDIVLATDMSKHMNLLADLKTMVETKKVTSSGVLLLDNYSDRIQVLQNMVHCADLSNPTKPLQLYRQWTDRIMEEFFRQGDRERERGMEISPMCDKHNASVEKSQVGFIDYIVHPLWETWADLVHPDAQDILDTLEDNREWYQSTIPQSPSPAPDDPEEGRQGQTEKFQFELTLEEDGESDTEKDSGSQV
Assay: PDE4 IC50 determination by Scintillation Proximity Assay, PDE4D
Format: biochemical
Conditions: Table 1B, Formula I compounds; read-out: IC50 PDE4D

Solved entries (count: 3):
{"columns": ["compound", "measuredOn", "measure", "recordedResult"],
 "data": [
  ["Cc1ccc(C(=O)c2sc(Nc3ccc4c(c3)CCC4)c(C#N)c2N)c(C)c1 [Compound 1-157]", "PDE4D (Homo sapiens)", "IC50", "< 10 µM"],
  ["COc1ccc(OC)c(C(=O)c2sc(NC3CCOC3=O)c(C#N)c2N)c1 (centres unmarked) [Compound 1-98]", "PDE4D (Homo sapiens)", "IC50", "> 10 µM"],
  ["N#Cc1c(Nc2ccccc2F)sc(C(=O)c2ccccn2)c1N [Compound 1-144]", "PDE4D (Homo sapiens)", "IC50", "< 10 µM"]
]}

Prompt: What value of measured IC50 is listed for N#Cc1c(NCCN2CCCCC2)sc(C(=O)c2cccc(Cl)c2)c1N [Compound 1-47] ?
Completion: > 10 µM

Prompt: Report IC50 for N#Cc1c(NC2CCCC2)sc(C(N)=O)c1N [Compound 1-196] please.
Completion: > 10 µM

Prompt: # input compound: COC(=O)C(CCSC)Nc1sc(C(=O)c2ccc(-c3ccccn3)s2)c(N)c1C#N (centres unmarked) [Compound 1-74] ; wanted: its IC50
Completion: < 10 µM

Prompt: Which IC50 value belongs to N#Cc1c(Nc2ccc(OC(F)F)cc2)sc(C(=O)c2ccccc2)c1N [Compound 1-166] ?
Completion: < 10 µM

Prompt: Can you share its IC50? I mean this compound: CCC(C)Nc1sc(C(=O)c2cc(-c3ccc(Cl)c(Cl)c3)no2)c(N)c1C(N)=O (centres unmarked) [Compound 1-249]
Completion: < 10 µM

Prompt: Could you tell me which IC50 is on file for NC(=O)c1c(NC2CCCC2)sc(C(=O)c2cc(-c3ccccc3)no2)c1N [Compound 1-251] ?
Completion: < 10 µM

Prompt: Give the measured IC50 of N#Cc1c(Nc2ccccc2)sc(C(=O)c2ccc3ccccc3c2)c1N [Compound 1-35] .
Completion: < 10 µM

Prompt: Which value of IC50 has been reported for Cc1nc(-c2cnccn2)sc1C(=O)c1sc(NC2CCCC2)c(C#N)c1N [Compound 1-219] in the records?
Completion: < 10 µM

Prompt: // lookup IC50 for N#Cc1c(Nc2ccccc2)sc(C(=O)c2ccccc2)c1N [Compound 1-16]
Completion: > 10 µM

Prompt: What value of IC50 has been recorded for this entry: COC(=O)c1ccccc1Nc1sc(C(=O)c2cnn(-c3ccccc3)c2C)c(N)c1C#N [Compound 1-126]
Completion: < 10 µM

Prompt: # input compound: COc1ccc(Nc2sc(C(=O)c3cc(-c4ccc(Cl)cc4Cl)no3)c(N)c2C#N)cc1 [Compound 1-164] ; wanted: its IC50
Completion: < 10 µM

Prompt: Param item = N#Cc1c(NC2CCCC2)sc(C(=O)c2cc(-c3c(Cl)cccc3Cl)no2)c1N [Compound 1-211] ; retrieve measured IC50.
Completion: < 10 µM

Prompt: Which IC50 value belongs to CCOC(=O)c1c(Nc2c(C)cccc2C)sc(C(=O)c2ccc(Br)cc2)c1N [Compound 1-24] ?
Completion: > 10 µM

Prompt: Using the record for COC(=O)C(CC(C)C)Nc1sc(C(=O)c2cc(-c3ccccc3)no2)c(N)c1C#N (centres unmarked) [Compound 1-141] , report its IC50.
Completion: < 10 µM
